Experimental Target: TNFα (Homo sapiens, UniProt P01375)
Sequence (P01375 77-233 limits assumed): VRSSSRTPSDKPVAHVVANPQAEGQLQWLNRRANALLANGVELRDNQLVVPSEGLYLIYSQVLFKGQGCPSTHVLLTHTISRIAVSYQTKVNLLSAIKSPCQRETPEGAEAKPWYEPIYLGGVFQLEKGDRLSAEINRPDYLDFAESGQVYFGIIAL
Test Method Notes: TNF-Induced HEK-Blue Assay
Format: cell-based
Measurement Context: HEK-Blue-CD40L cells, NF-kB-driven secreted alkaline phosphatase reporter; TNFα 0.5 ng/ml; 18 h; read-out: TNF induced HEK-Blue assay IC50 value
pIC50: −log10 of the molar value. Starred links: 1 amine or outer side, 2 acyl side, 3 side chain; linkers in the order of their positions; H or OH if unused. Positions of bridges follow the written chain, without caps; N, C: chain ends. Non-standard residues stand in square brackets, D forms with d. Residues, ends and D or L forms follow the SMILES beside them. X77 = Cc1ccc(C(=O)O)cc1C(=O)Nc1ccc(-c2ccc(C[C@H](N[*:1])C(=O)[*:2])cc2)cc1; Ala(morpholin-4-yl) = N[C@@H](CN1CCOCC1)C(=O)O; Bip = N[C@@H](Cc1ccc(-c2ccccc2)cc1)C(=O)O; Phe(3-OMe) = COc1cccc(C[C@H](N)C(=O)O)c1; 3Pal = N[C@@H](Cc1cccnc1)C(=O)O; Cha = N[C@@H](CC1CCCCC1)C(=O)O; Sar = CNCC(=O)O
# key: entry, value: pIC50

| Compound | pIC50 |
| --- | --- |
| COc1cccc(C[C@@H]2NC(=O)[C@H](C(C)C)NC(=O)[C@@H]3CCCN3C(=O)[C@H](C(C)C)NC(=O)[C@H](CCCNC(=N)N)NC(=O)[C@H](CC(=O)O)NC(=O)[C@@H]3CCCN3C(=O)CN(C)C(=O)[C@H](Cc3ccc(-c4ccccc4)cc3)NC(=O)[C@H](Cc3ccc(-c4ccccc4)cc3)NC(=O)[C@H](Cc3ccccc3)NC(=O)CSC[C@@H](C(=O)NCC(N)=O)NC(=O)[C@H](CC(C)C)NC2=O)c1 [Example 63] ({CH2CO}-F[Bip][Bip][Sar]PDRVPV[Phe(3-OMe)]LCG-NH2; thioether N-13) | 5.70 to 6.70 |

Reported pIC50, compound CC[C@H](C)[C@@H]1NC(=O)[C@@H](CCCNC(=N)N)NC(=O)[C@H](CC(=O)O)NC(=O)[C@H](Cc2cnc[nH]2)NC(=O)CN(C)C(=O)[C@H](Cc2ccc(-c3ccc(NC(=O)c4cc(C(=O)O)ccc4C)cc3)cc2)NC(=O)[C@H](Cc2ccc(-c3ccccc3)cc2)NC(=O)[C@H](CC2CCCCC2)NC(=O)CSC[C@@H](C(=O)NCC(N)=O)NC(=O)[C@H](CC(C)C)NC(=O)[C@H](Cc2cnc[nH]2)NC(=O)[C@H](C(C)C)NC(=O)[C@@H]2CCCN2C1=O [Example 450] ({CH2CO}-[Cha][Bip][X77][Sar]HD[dR]IPVHLCG-NH2; thioether N-13) : ____
> 7.30

Quick one: CC(C)C[C@@H]1NC(=O)[C@H](Cc2ccc(O)cc2)NC(=O)[C@H](C(C)C)NC(=O)[C@@H]2CCCN2C(=O)[C@H](Cc2cccnc2)NC(=O)[C@H](CCCNC(=N)N)NC(=O)[C@H](CC(=O)O)NC(=O)[C@H](Cc2ccc(O)cc2)NC(=O)CN(C)C(=O)[C@H](Cc2ccc(-c3ccccc3)cc2)NC(=O)[C@H](Cc2ccc(-c3ccccc3)cc2)NC(=O)[C@H](CN2CCOCC2)NC(=O)CSC[C@@H](C(=O)NCC(N)=O)NC1=O [Example 115] ({CH2CO}-[Ala(morpholin-4-yl)][Bip][Bip][Sar]YDR[3Pal]PVYLCG-NH2; thioether N-13)
5.70 to 6.70

Quick one: CC(C)C[C@@H]1NC(=O)[C@H](Cc2ccc(O)cc2)NC(=O)[C@H](C)NC(=O)[C@@H]2CCCN2C(=O)[C@H](C(C)C)NC(=O)[C@@H](CCCNC(=N)N)NC(=O)[C@H](CC(=O)O)NC(=O)[C@H](Cc2ccc(O)cc2)NC(=O)CN(C)C(=O)[C@H](Cc2ccc(-c3ccccc3)cc2)NC(=O)[C@H](Cc2ccc(-c3ccccc3)cc2)NC(=O)[C@H](CN2CCOCC2)NC(=O)CSC[C@@H](C(=O)NCC(N)=O)NC1=O [Example 162] ({CH2CO}-[Ala(morpholin-4-yl)][Bip][Bip][Sar]YD[dR]VPAYLCG-NH2; thioether N-13)
6.70 to 7.30
